Origin of measurements: PubChem BioAssay AID550

biological target: diphosphomevalonate decarboxylase (Streptococcus pneumoniae D39); assay: S. pneumoniae DPM-DC inhibitor potency, dose response, biochemical, PK/LDH-coupled NADH fluorescence, hexokinase coupling counter-screen (AID 550); settings: purified DPM-DC
The source made the active and inactive calls.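 The calls were made as follows: active = clearly stronger inhibition of the target decarboxylase than of the coupling enzymes tested in parallel without it; inactive = the rest.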
readout-label: outcome

molecule	readout-label	readout-value
Cc1ccc2oc(=O)c3cnn(CC(=O)NC4CCN(Cc5ccccc5)CC4)c3c2c1	outcome	inactive
CCCc1nnc(NC(=O)CN2CCOCC2)s1	outcome	inactive
COc1ccc(C2CC(c3cccc(C)c3)n3nc(N)nc3N2)cc1 (stereo not drawn)	outcome	inactive

---

target: diphosphomevalonate decarboxylase (Streptococcus pneumoniae D39); assay: S. pneumoniae DPM-DC inhibitor potency, dose response, biochemical, PK/LDH-coupled NADH fluorescence, hexokinase coupling counter-screen (AID 550); details: purified DPM-DC
Active and inactive are the calls of the source.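 The calls were made as follows: active = clearly stronger inhibition of the target decarboxylase than of the coupling enzymes tested in parallel without it; inactive = the rest.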

molecule	outcome
Cc1noc(C)c1CSc1nc2ccccc2s1	inactive
CCOC(=O)COc1ccc2nsnc2c1Cl	inactive
COc1cc2c(cc1NC(=O)c1ccc3c(c1)OCO3)oc1ccccc12	inactive
CCN(CC)CCOC(=O)c1ccc(N=CC2=C(O)CC(C)(C)CC2=O)cc1	inactive
Cc1occc1C(=O)Nc1nnc(C(F)(F)F)s1	inactive
Cc1cnc(SCCc2ccncc2)nc1C	inactive
O=S(=O)(Nc1cccc2ncccc12)c1cccs1	inactive
CCOc1ccc(C(=O)O)cc1OC	inactive
Cc1cc(=O)[nH]c2ccccc12	inactive
Cc1nc(-c2cnn(-c3ccccc3)c2)c2cc(C)oc2n1	inactive
CCCN1C(=O)C(NC(C)=O)c2cc(OC)ccc21 (configuration not stated)	inactive
CC(C)C(OC(=O)CN1C(=O)COc2ccccc21)C(=O)NC1CCCC1 (configuration not stated)	inactive
O=C(CCc1nc(-c2ccccc2F)no1)NCCN1CCc2ccccc2C1	inactive
COc1ccccc1NC(=O)CSc1nc(O)cc(=O)n1-c1ccccc1OC	inactive
COc1ccccc1CNc1ncnc2nc[nH]c12	inactive
Cc1ccc(-n2c(SCC(=O)NCc3ccco3)nnc2-c2cccnc2)c(C)c1	inactive
Cc1cc(N2CCN(C(=O)c3ccco3)CC2)n2nc(-c3cccc(Cl)c3)cc2n1	inactive
CC1(C)C(C=C(Cl)Cl)C1C(=O)N1CCN(c2ccccc2)CC1 (configuration not stated)	inactive
COCCOC(=O)c1c(C)oc2ccc(NS(=O)(=O)c3ccc(F)cc3)cc12	inactive
c1ccc(-c2nc3nonc3c3nc4ccccc4n23)cc1	inactive
COC(=O)C1=C(C)OC(N)=C(C#N)C1c1cc(OC)c(OCC(N)=O)cc1Cl (configuration not stated)	inactive
CCn1c(SCC(=O)Nc2cccc(C(C)=O)c2)nnc1C(C)C	inactive
CCOC(=O)c1cc2c(=O)n(C)c3ccccc3c2s1	inactive
CCCn1c(C)nc2c(c1=O)c1nc3ccccc3nc1n2-c1ccc2c(c1)OCCO2	inactive
O=C(c1ccc(F)cc1)N1CCC(N2CCCCCC2)CC1	inactive
CCOC(=O)c1[nH]c2ccc(OC)cc2c1NC(=O)CN1CCN(c2ccccn2)CC1	inactive
COC(=O)CC1SC(=O)NC1=Nc1ccccc1 (configuration not stated)	inactive
OCCNc1ncnc2c1c(-c1ccccc1)c(-c1ccccc1)n2Cc1ccco1	inactive
CN(C)S(=O)(=O)c1cccc(C(=O)C2=C3SC=C(c4ccccc4)N3CC2)c1	inactive
COc1cc2c(C#N)c(N3CCN(c4ccccc4OC)CC3)nc(N)c2c(N)n1	inactive
Cc1ccc(S(=O)(=O)N2CCOCC(=O)NCCOCCNC(=O)COCC2)cc1	inactive
O=C(CSc1ncnc2c1cnn2-c1ccccc1)Nc1ccc2c(c1)OCO2	inactive
Cc1cccc(C)c1NC(=O)C(c1ccccc1)N1CCN(C(=O)c2ccco2)CC1 (configuration not stated)	inactive
Cc1ccsc1C1C(C(=O)O)c2ccccc2C(=O)N1C (configuration not stated)	inactive
COc1ccc(N2CCN(CCNS(=O)(=O)c3cccc4nsnc34)CC2)cc1	inactive
CCOC(=O)c1c(C)n(OCc2ccccc2)c2ccc3c(no[n+]3[O-])c12	inactive
N#CC(C(=O)NC1CCCCC1)c1nc2ccccc2nc1N1CCCCC1 (configuration not stated)	inactive
N#C/C(=C\C1CC=CCC1)c1nc2ccccc2[nH]1 (configuration not stated)	inactive
CC(C)(O)P(C)(=O)c1ccccc1 (configuration not stated)	inactive
Cc1c(C(=O)NCC2CCCO2)sc2nc(-c3ccccc3)cn12 (configuration not stated)	inactive
Cn1c(-c2ccc(N)cc2)nc2ccccc21	inactive
COc1ccc(C(c2nnnn2CC2CCCO2)N2CCN(c3ccccc3)CC2)cc1 (configuration not stated)	inactive
COCCn1nnnc1CN(Cc1cccnc1)Cc1cc2cc(OC)ccc2[nH]c1=O	inactive
CCc1ccc(S(=O)(=O)NCc2cn3ccsc3n2)s1	inactive
C=C(C)Cn1c(COc2ccccc2)nnc1SCC(=O)O	inactive
Cc1c(C(=O)NC2CC2)oc2ccc(S(=O)(=O)N3CCCCCC3)cc12	inactive
N#Cc1c(C(F)(F)F)cc(-c2ccco2)nc1SCc1ccncc1	inactive
